Please go through the items and note down their pKi.
- TARGET: human 5-HT2C (Homo sapiens)
- Sequence (P28335 33-458): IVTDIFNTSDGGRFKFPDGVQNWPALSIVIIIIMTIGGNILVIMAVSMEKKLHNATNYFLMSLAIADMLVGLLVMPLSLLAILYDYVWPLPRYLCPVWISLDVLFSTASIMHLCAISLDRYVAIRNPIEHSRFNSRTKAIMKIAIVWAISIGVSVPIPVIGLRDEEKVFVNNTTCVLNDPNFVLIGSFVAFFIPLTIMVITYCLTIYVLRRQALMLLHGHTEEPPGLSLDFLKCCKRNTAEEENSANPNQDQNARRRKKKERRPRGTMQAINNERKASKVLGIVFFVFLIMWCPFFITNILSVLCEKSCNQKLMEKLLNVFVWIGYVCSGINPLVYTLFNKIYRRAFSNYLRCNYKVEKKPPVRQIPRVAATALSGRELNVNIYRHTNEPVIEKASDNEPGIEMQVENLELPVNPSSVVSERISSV
- PROCEDURE DETAILS: Binding to 5-HT2C receptor, [3H]-5-HT radioligand, Method (a)
- SETTINGS: 5-HT2C receptors in a CHO cell line, read-out: Method (a) Ki (2C)
- Description: The binding of compounds of formula I to serotonin receptors was determined in vitro by standard methods. The preparations were investigated in accordance with the assays given hereinafter. Method (a): For the binding to the 5-HT2C receptor the 5-HT2C receptors were radiolabeled with [^3H]-5-HT. The affinity of the compounds for 5-HT2C receptors in a CHO cell line was determined according to the procedure of D. Hoyer, G. Engel and H. O. Kalkman, European J Pharmacol., 1985, 118, 13-23.
Structures can show the parent of a compound that is named as a salt.
# pKi: negative log10 of molar concentration; output just the value

stdin: Reported pKi, molecule Cc1nn(C[C@H](C)N)c2cc(Cl)c(F)cc12 [Example 4, Fumarate] : ____
stdout: 7.12

stdin: Reported pKi, molecule CCc1nn(C[C@H](C)N)c2cc(SC)ccc12 [Example 8, Fumarate] : ____
stdout: 7.43

stdin: Reported pKi, molecule COc1ccc2c(C)nn(C[C@H](C)N)c2c1 [Example 2, Fumarate] : ____
stdout: 6.68

stdin: Reported pKi, molecule Cc1nn(CC(C)N)c2ccccc12 (racemic) [Example 1, Fumarate] : ____
stdout: 6.37

stdin: Reported pKi, molecule Cc1nn(C[C@H](C)N)c2cc(F)c(F)cc12 [Example 3, Fumarate] : ____
stdout: 6.85

====

Where a name gives a salt, the structure may show the parent alone.
Please go through the items and note down their melting point.

stdin: Reported melting point, compound CCc1nn(C[C@H](C)N)c2cc(Br)ccc12 (as salt: fumarate) : ____
stdout: 148 to 150 °C

stdin: Reported melting point, compound Cc1nn(C[C@H](C)N)c2cc(Cl)c(F)cc12 (as salt: fumarate) : ____
stdout: 158 to 159 °C

stdin: Reported melting point, compound Cc1nn(C[C@H](C)N)c2cc(F)c(F)cc12 (as salt: fumarate) : ____
stdout: 160 to 161 °C

stdin: Reported melting point, compound CCc1nn(C[C@H](C)N)c2cc(F)ccc12 (as salt: fumarate) : ____
stdout: 143 to 145 °C

stdin: Reported melting point, compound COc1ccc2c(C)nn(C[C@H](C)N)c2c1 (as salt: fumarate) : ____
stdout: 180 to 181 °C

stdin: Reported melting point, compound CCc1nn(C[C@H](C)N)c2cc(SC)ccc12 (as salt: fumarate) : ____
stdout: 147 to 149 °C

====

- TARGET: UniProtKB P28335
- PROCEDURE DETAILS: Functional activity, FLIPR calcium assay, CHO cells expressing human 5-HT2C
- Type: cell-based
- Design: expressed in transfected cells; host or cells: CHO cells
- SETTINGS: CHO; maximum fluorescent signal relative to 10 μM 5-HT (defined as 100%); read-out: h5-HT2C Relative Efficacy (%)
- Protocol: The functional activity of compounds of formula (I) was assayed using a Fluorimetric Imaging Plate reader (FLIPR). CHO cells expressing the human 5-HT2C or human 5-HT2A receptors were counted and plated into standard 96 well microtitre plates on the day before testing to give a confluent monolayer. […] The drug (dissolved in 50 μL of the assay buffer) was added at a rate of 70 μL/sec to each well of the FLIPR 96 well plate during fluorescence measurements. […]
Where a name gives a salt, the structure may show the parent alone.
Please go through the items and note down their Emax.
Record the value in %, omitting the unit from your answer.

stdin: Reported Emax, compound CCc1nn(C[C@H](C)N)c2cc(Br)ccc12 [Example 7, Fumarate] : ____
stdout: 69

stdin: Reported Emax, compound CCc1nn(C[C@H](C)N)c2cc(C(F)(F)F)ccc12 [Example 5, Fumarate] : ____
stdout: 73

stdin: Reported Emax, compound CCc1nn(C[C@H](C)N)c2cc(SC)ccc12 [Example 8, Fumarate] : ____
stdout: 81

stdin: Reported Emax, compound COc1ccc2c(C)nn(C[C@H](C)N)c2c1 [Example 2, Fumarate] : ____
stdout: 74

stdin: Reported Emax, compound CCc1nn(C[C@H](C)N)c2cc(F)ccc12 [Example 6, Fumarate] : ____
stdout: 47

stdin: Reported Emax, compound Cc1nn(CC(C)N)c2ccccc12 (racemic) [Example 1, Fumarate] : ____
stdout: 55

stdin: Reported Emax, compound Cc1nn(C[C@H](C)N)c2cc(Cl)c(F)cc12 [Example 4, Fumarate] : ____
stdout: 76

stdin: Reported Emax, compound Cc1nn(C[C@H](C)N)c2cc(F)c(F)cc12 [Example 3, Fumarate] : ____
stdout: 67
